test system: Mycobacterium tuberculosis H37Rv; assay: Susceptibility testing against Mycobacterium tuberculosis H37Rv (broth microdilution, resazurin readout); type: cell-based; conditions: Mycobacterium tuberculosis, 168 h; M. tuberculosis H37Rv, 7 days at 37° C., resazurin fluorescence; read-out: MIC50 (μM) M. tub H37Rv
Label scheme, based on MIC50: low: < 7 µM; intermediate: ≥ 7 µM and < 10 µM; high: ≥ 10 µM

Sample answers from the record:
molecule="CC(C)NCC1CC(c2ccc(OC(F)(F)F)cc2)N1Cc1ccccc1OC(F)(F)F (racemic)" class_name=intermediate
molecule="COCCNCC1CC(c2ccc(OC(F)(F)F)cc2)N1Cc1ccccc1OC(F)(F)F (racemic)" class_name=high
molecule="CNCC1CC(c2ccc(OC(F)(F)F)cc2)N1Cc1ccccc1OC(F)(F)F (racemic)" class_name=low
molecule="COc1ccccc1CN1C(CN2CCCC2)CC1c1ccc(Br)cc1 (racemic)" class_name=high
molecule="FC(F)(F)c1ccc(C2CC(CN3CCCC3)N2Cc2ccccc2C(F)(F)F)cc1 (racemic)" class_name=intermediate
molecule="FC(F)(F)c1ccccc1CN1C(CN2CCCC2)CC1c1ccccc1C(F)(F)F (racemic)" class_name=low

Exercise: Class? Entry: CN(C)CC1CC(c2cc(C(F)(F)F)cc(C(F)(F)F)c2)N1Cc1ccccc1Br (racemic)
Key: low

Exercise: Input COc1ccc(C2CC(CN3CCCC3)N2Cc2ccccc2Br)cc1 (racemic) ; output its category
Key: high

Exercise: Lab note: which band did FC(F)(F)Oc1ccccc1CN1C(CN2CCCC2)CC1c1ccccc1 (racemic) land in?
Key: high

Exercise: Each molecule maps to one class by MIC50. Which class for FC(F)(F)Oc1ccc(C2CC(CN3CCCC3)N2Cc2ccccc2OC(F)(F)F)cc1 (racemic) ?
Key: intermediate

Exercise: Consider Brc1cc(Br)cc(C2CC(CNC3CC3)N2Cc2ccccc2Br)c1 (racemic) . To which MIC50 class does it belong?
Key: high

Exercise: # bin lookup: classify COc1ccccc1CN1C(CN2CCCC2)CC1c1cccc(Cl)c1 (racemic) by its MIC50
Key: high

Exercise: Determine which band this molecule sits in: FC(F)(F)c1ccccc1CN1C(CN2CCCC2)CC1c1ccccc1 (racemic)
Key: high

Exercise: Looking at Clc1cc(Cl)cc(C2CC(CN3CCCC3)N2Cc2ccccc2Br)c1 (racemic) , which class would you pick?
Key: intermediate

----------
system: Mycobacterium tuberculosis H37Rv; assay: Susceptibility testing against Mycobacterium tuberculosis H37Rv (broth microdilution, resazurin readout); assay type: cell-based; settings: Mycobacterium tuberculosis, 168 h; M. tuberculosis H37Rv, 7 days at 37° C., resazurin fluorescence; read-out: MIC50 (μM) M. tub H37Rv
Cut-off 20 µM on MIC50: below means 1, at or above means 0.

Here's what some known entries look like.
compound="FC(F)(F)Oc1cccc(C2CC(CN3CCCC3)N2Cc2ccccc2OC(F)(F)F)c1 (racemic)" class_name=1
compound="FC(F)(F)Oc1ccc(C2CC(CN3CCC(c4ccc(C(F)(F)F)cc4)CC3)N2Cc2ccccc2Br)cc1 (racemic)" class_name=0
compound="COc1ccccc1CN1C(CN2CCCC2)CC1c1ccc(Cl)cc1 (racemic)" class_name=1
compound="C#CCNCC1CC(c2cc(Br)cc(Br)c2)N1Cc1ccccc1Br (racemic)" class_name=0
compound="Cc1ccccc1CN1C(CN2CCCC2)CC1c1ccccc1 (racemic)" class_name=0

Exercise: Is MIC50 strictly under 20 µM for the entry CC(C)NCC1CC(c2ccccc2)N1Cc1ccccc1OC(F)(F)F (racemic) ?
Key: 0

Exercise: Take the compound CN(C)CC1CC(c2cc(Br)cc(Br)c2)N1Cc1ccccc1Br (racemic) and say whether its MIC50 is less than 20 µM.
Key: 1

Exercise: Hello, is MIC50 of the following compound strictly smaller than 20 µM? FC(F)(F)Oc1ccc(C2CC(CNC3CC3)N2Cc2ccccc2OC(F)(F)F)cc1 (racemic)
Key: 1

Exercise: Item COc1ccccc1CN1C(CN2CCCC2)CC1c1ccccc1Cl (racemic) : MIC50 beneath 20 µM, strictly?
Key: 0
